target: TXK (Homo sapiens (Human)); test: IC50 against TXK; format: biochemical
Sequence (P42681 whole entry, species assumed): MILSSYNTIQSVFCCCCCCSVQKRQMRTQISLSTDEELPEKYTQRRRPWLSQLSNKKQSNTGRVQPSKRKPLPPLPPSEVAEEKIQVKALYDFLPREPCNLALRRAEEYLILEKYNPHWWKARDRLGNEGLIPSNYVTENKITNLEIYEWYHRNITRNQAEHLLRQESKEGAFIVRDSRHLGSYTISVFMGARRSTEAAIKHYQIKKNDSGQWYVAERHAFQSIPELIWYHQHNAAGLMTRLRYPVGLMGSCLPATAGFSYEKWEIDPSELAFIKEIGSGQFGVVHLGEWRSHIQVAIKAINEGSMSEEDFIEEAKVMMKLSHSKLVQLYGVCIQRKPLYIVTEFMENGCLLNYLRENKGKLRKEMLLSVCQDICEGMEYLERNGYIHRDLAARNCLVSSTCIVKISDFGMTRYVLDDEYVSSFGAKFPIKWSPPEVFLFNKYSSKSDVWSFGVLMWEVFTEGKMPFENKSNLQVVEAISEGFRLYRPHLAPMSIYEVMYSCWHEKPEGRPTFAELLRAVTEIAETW
READOUT LABEL: IC50

Examples from the recorded data:
{"columns": ["COMPOUND", "IC50"],
 "data": [
  ["C=CC(=O)N1CCCN(C(=O)c2cc(Sc3cnc(NC(=O)CC)s3)c(C)cc2OC)C[C@H]1C", "≥ 10000 nM"],
  ["C=CC(=O)N1CCN(C(=O)c2cc(Sc3cnc(Nc4ncc(C)cc4C)s3)c(C)cc2C)CC1", "10 to 100 nM"],
  ["C=CC(=O)N1CCCN(C(=O)c2cc(Sc3cnc(NC(=O)C4CC4)s3)c(C)cc2OC)CCC1", "100 to 1000 nM"]
]}

Let us examine a further case.
Task: Notebook entry, TXK (Homo sapiens (Human)) assay: IC50 of `C=CC(=O)N1CCN(C(=O)c2cc(Sc3cnc(NC(=O)c4ccsc4)s3)c(C)cc2OC)[C@@H](C)C1` = ?
Result: 10 to 100 nM
